Collected EC50 values appear next to each entry.
test system: MDA-MB-231 breast cancer cell line
Starred links: 1 amine or outer side, 2 acyl side, 3 side chain; linkers in the order of their positions; H or OH if unused. Non-standard residues stand in square brackets, D forms with d. Residues, ends and D or L forms follow the SMILES beside them. Pro(4R-Bn) = O=C(O)[C@@H]1C[C@@H](Cc2ccccc2)CN1; Dip = N[C@H](C(=O)O)C(c1ccccc1)c1ccccc1; Cha = N[C@@H](CC1CCCCC1)C(=O)O; Cysteamide = C(CS[*:3])N[*:1]; Tle = CC(C)(C)[C@H](N)C(=O)O; NMeA = CN[C@@H](C)C(=O)O
Recorded Endpoint: EC50 (µM)

[
  {
    "Molecule": "CN[C@@H](C)C(=O)N[C@H](C(=O)N1C[C@H](Cc2ccccc2)C[C@H]1C(=O)N[C@@H](Cc1c[nH]c2ccccc12)C(=O)NCCS)C(C)(C)C [SMAC19, N^MeAla-Tle-(4-Bzl)Pro-Trp-NHCH2CH2SH] (H-[NMeA][Tle][Pro(4R-Bn)]W-Cysteamide; N-terminus assumed)",
    "Readout Number": 36.7
  },
  {
    "Molecule": "CN[C@@H](C)C(=O)N[C@H](C(=O)N1C[C@H](Cc2ccccc2)C[C@H]1C(=O)N[C@H](C(=O)NCCS)C(c1ccccc1)c1ccccc1)C(C)(C)C [SMAC16, N^MeAla-Tle-(4-Bzl)Pro-Dpa-NHCH2CH2SH] (H-[NMeA][Tle][Pro(4R-Bn)][Dip]-Cysteamide; N-terminus assumed)",
    "Readout Number": 9.4
  },
  {
    "Molecule": "CN[C@@H](C)C(=O)N[C@H](C(=O)N1C[C@H](Cc2ccccc2)C[C@H]1C(=O)N[C@@H](Cc1c(F)c(F)c(F)c(F)c1F)C(=O)NCCS)C(C)(C)C",
    "Readout Number": 27
  },
  {
    "Molecule": "CN[C@@H](C)C(=O)N[C@H](C(=O)N1C[C@H](Cc2ccccc2)C[C@H]1C(=O)N[C@@H](Cc1cccc2ccccc12)C(=O)NCCSCc1cc(CSCCNC(=O)[C@H](Cc2cccc3ccccc23)NC(=O)[C@@H]2C[C@@H](Cc3ccccc3)CN2C(=O)[C@@H](NC(=O)[C@H](C)NC)C(C)(C)C)cc(CSCCNC(=O)[C@H](Cc2cccc3ccccc23)NC(=O)[C@@H]2C[C@@H](Cc3ccccc3)CN2C(=O)[C@@H](NC(=O)[C@H](C)NC)C(C)(C)C)c1)C(C)(C)C",
    "Readout Number": 7.2
  },
  {
    "Molecule": "CN[C@@H](C)C(=O)N[C@H](C(=O)N1C[C@H](Cc2ccccc2)C[C@H]1C(=O)N[C@@H](CC1CCCCC1)C(=O)NCCS)C(C)(C)C [SMAC12, N^MeAla-Tle-(4-Bzl)Pro-Cha-NHCH2CH2SH] (H-[NMeA][Tle][Pro(4R-Bn)][Cha]-Cysteamide; N-terminus assumed)",
    "Readout Number": 10.1
  },
  {
    "Molecule": "CN[C@@H](C)C(=O)N[C@H](C(=O)N1C[C@H](Cc2ccccc2)C[C@H]1C(=O)N[C@H](CC(=O)NCCS)Cc1ccccc1)C(C)(C)C",
    "Readout Number": 29.7
  },
  {
    "Molecule": "CN[C@@H](C)C(=O)N[C@H](C(=O)N1C[C@H](Cc2ccccc2)C[C@H]1C(=O)NC[C@H]1CC[C@H](C(=O)NCCS)CC1)C(C)(C)C",
    "Readout Number": 91.8
  }
]
